Just for reference, paper PMC7949025 is where these values come from.

Subject of test: T1, biotinylated A93D-PNT domain (ETV6 residues 43-135, A93D, with Avitag) (human, UniProt P41212 43-135, A93D, biotin on the Avitag (~50 to 95% biotinylated))
T1 construct: ETV6, human, residues 43-135; made from the V112E construct by introducing A93D and E112V; also called biotinylated A93D-PNT domain ligand; A93D-PNT domain ligand; source: E. coli BL21 (λDE3) co-transformed with pET21a-BirA, purified (Ni-NTA, thrombin cleavage); not shown: His6, N-terminal, cleaved; Avitag, N-terminal, kept
T1 sequence (looked up): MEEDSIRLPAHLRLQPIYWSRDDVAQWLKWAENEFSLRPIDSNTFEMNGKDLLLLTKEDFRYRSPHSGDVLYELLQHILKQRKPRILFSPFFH
Protocol: SPR; biotinylated A93D-PNT domain ligand captured on streptavidin Sensor Chip SA, PNT domain analytes flowed; Biacore X100, 25 °C, HBS-EP+ (10 mM HEPES, 150 mM NaCl, 3 mM EDTA, 0.05% v/v Tween-20, pH 7.4); analyte 0.2-60 nM, re-run at 20-6000 nM if KD > 60 nM
Measurement setup: both partners purified
Examples of binders with documented kon follow.
Measurement label: kon (M⁻¹ s⁻¹)

T98A-V112E-PNT domain (domain or fragment, human, UniProt P41212 40-125, looked up, ETV6 PNT domain, human; source: E. coli BL21 (λDE3), purified (Ni-NTA, thrombin cleavage); not shown: His6, N-terminal, cleaved) ALRMEEDSIRLPAHLRLQPIYWSRDDVAQWLKWAENEFSLRPIDSNTFEMNGKALLLLAKEDFRYRSPHSGDELYELLQHILKQRK | 620000
L97A-V112E-PNT domain (domain or fragment, human, UniProt P41212 40-125, looked up, ETV6 PNT domain, human; source: E. coli BL21 (λDE3), purified (Ni-NTA, thrombin cleavage); not shown: His6, N-terminal, cleaved) ALRMEEDSIRLPAHLRLQPIYWSRDDVAQWLKWAENEFSLRPIDSNTFEMNGKALLLATKEDFRYRSPHSGDELYELLQHILKQRK | 98000
N85A-V112E-PNT domain (domain or fragment, human, UniProt P41212 40-125, looked up, ETV6 PNT domain, human; source: E. coli BL21 (λDE3), purified (Ni-NTA, thrombin cleavage); not shown: His6, N-terminal, cleaved) ALRMEEDSIRLPAHLRLQPIYWSRDDVAQWLKWAENEFSLRPIDSATFEMNGKALLLLTKEDFRYRSPHSGDELYELLQHILKQRK | 350000
E88A-V112E-PNT domain (domain or fragment, human, UniProt P41212 40-125, looked up, ETV6 PNT domain, human; source: E. coli BL21 (λDE3), purified (Ni-NTA, thrombin cleavage); not shown: His6, N-terminal, cleaved) ALRMEEDSIRLPAHLRLQPIYWSRDDVAQWLKWAENEFSLRPIDSNTFAMNGKALLLLTKEDFRYRSPHSGDELYELLQHILKQRK | 500000
R63A-V112E-PNT domain (domain or fragment, human, UniProt P41212 40-125, looked up, ETV6 PNT domain, human; source: E. coli BL21 (λDE3), purified (Ni-NTA, thrombin cleavage); not shown: His6, N-terminal, cleaved) ALRMEEDSIRLPAHLRLQPIYWSADDVAQWLKWAENEFSLRPIDSNTFEMNGKALLLLTKEDFRYRSPHSGDELYELLQHILKQRK | 360000
